Sourced from the Immune Epitope Database (IEDB)

Kd by entry:
- Target Of Assay: HLA-B*40:02
- Protocol: IEDB peptide-MHC binding, purified MHC/competitive/radioactivity; filed as Kd, often an IC50 or EC50 that approximates it; bounds were set here for any values at or beyond the usual limits of such assays
- Applied Conditions: source organism: Mammarenavirus choriomeningitidis
Observation Type: Kd (nM)

1) EDQFLPFMS
7960
2) AEQLMSLAA
3.31
3) REGLLNYSM
17.7

###

- Target Of Assay: HLA-A*02:01
- Protocol: IEDB peptide-MHC binding, purified MHC/competitive/fluorescence; bounds were set here for any values at or beyond the usual limits of such assays
- Applied Conditions: source organism: Homo sapiens
Observation Type: IC50 (nM)

1) YIGEVLVSV
10

###

- Target Of Assay: HLA-A*02:01
- Protocol: IEDB peptide-MHC binding, purified MHC/direct/fluorescence; filed as Kd, often an IC50 or EC50 that approximates it; bounds were set here for any values at or beyond the usual limits of such assays
- Applied Conditions: source organism: Ebola virus - Mayinga, Zaire, 1976
Observation Type: Kd (nM)

1. LLADGLAKA
25.7

###

- Target Of Assay: HLA-A*26:01
- Protocol: IEDB peptide-MHC binding, purified MHC/competitive/radioactivity; filed as Kd, often an IC50 or EC50 that approximates it; bounds were set here for any values at or beyond the usual limits of such assays
- Applied Conditions: source organism: SARS coronavirus Tor2
Observation Type: Kd

1) MWSFNPETNI
≥ 39.1 µM
2) HTSSMRGVY
0.00478 µM
3) AYSNRNRFL
≥ 77.9 µM

###

- Target Of Assay: HLA-B*51:01
- Protocol: IEDB peptide-MHC binding, purified MHC/competitive/radioactivity; filed as Kd, often an IC50 or EC50 that approximates it; bounds were set here for any values at or beyond the usual limits of such assays
- Applied Conditions: source organism: Dengue virus 1 Singapore/S275/1990
Observation Type: Kd (nM)

1) MFLIAENKI
2760

###

- Target Of Assay: HLA-B*27:03
- Protocol: IEDB peptide-MHC binding, purified MHC/competitive/fluorescence; filed as Kd, often an IC50 or EC50 that approximates it; bounds were set here for any values at or beyond the usual limits of such assays
- Applied Conditions: source organism: Orthohantavirus andesense
pKd: −log10 of the molar value.
Catalogue of pKd readings, one per entry.
Observation Type: pKd

1. AVEDFLAFF
≤ 4.70
2. DAVEDFLAF
≤ 4.70

###

- Target Of Assay: HLA-A*11:01
- Protocol: IEDB peptide-MHC binding, purified MHC/direct/fluorescence; filed as Kd, often an IC50 or EC50 that approximates it; bounds were set here for any values at or beyond the usual limits of such assays
- Applied Conditions: source organism: Vibrio cholerae
Observation Type: Kd

1) RPRIRLSAP
≥ 20 µM

###

- Target Of Assay: HLA-B*15:01
- Protocol: IEDB peptide-MHC binding, purified MHC/direct/fluorescence; filed as Kd, often an IC50 or EC50 that approximates it; bounds were set here for any values at or beyond the usual limits of such assays
- Applied Conditions: source organism: Yersinia enterocolitica subsp. enterocolitica 8081
pKd: −log10 of the molar value.
Observation Type: pKd

1. LPLEFWQAW
≤ 4.70

###

Form field: Kd (one value per entry).
- Target Of Assay: HLA-B*07:02
- Protocol: IEDB peptide-MHC binding, purified MHC/direct/fluorescence; filed as Kd, often an IC50 or EC50 that approximates it; bounds were set here for any values at or beyond the usual limits of such assays
- Applied Conditions: source organism: Homo sapiens
Observation Type: Kd (nM)

1) LVMAPRTVL
179
2) YPAEITLTW
147
